We begin with a simple list: items and their reported log10 of IC50.
tested on: Cryptococcus neoformans; assay: Antifungal activity against Cryptococcus neoformans by alamar blue assay; assay type: functional, organism-based; conditions: Cryptococcus neoformans; read-out: IC50
// stored as log10 of IC50 expressed in mg/L

{"Molecule": "CCCCCC1=CC(=O)C2=C(OC(C)(C)[C@@H]3C=CC(C)(OO)C[C@@H]23)C1=O (stereo partly drawn)", "Recorded Value": -0.03}
{"Molecule": "CCCCCc1cc(O)c2c(c1)OC(C)(C)C1=C2C(OCC)C(C)(O)CC1 (stereo not drawn)", "Recorded Value": 0.66}
{"Molecule": "CCCCCC1=CC(=O)C2=C(OC(C)(C)c3ccc(C)cc32)C1=O", "Recorded Value": 0.65}
{"Molecule": "C=C1C[C@H]2C3=C(OC(C)(C)[C@@H]2CC1OO)C(=O)C(CCCCC)=CC3=O (stereo in doubt; 25)", "Recorded Value": 0.15}
{"Molecule": "C=C1C[C@H]2C3=C(OC(C)(C)[C@@H]2C[C@H]1O)C(=O)C(CCCCC)=CC3=O", "Recorded Value": 0.26}
{"Molecule": "C=C1C[C@H]2c3c(O)cc(CCCCC)cc3OC(C)(C)[C@@H]2C[C@H]1O", "Recorded Value": 0.92}
{"Molecule": "C[C@@H]1[C@H](O)[C@@H](C)/C=C/C=C/C=C/C=C/C=C/C=C/C=C/[C@H](O[C@@H]2O[C@H](C)[C@@H](O)[C@H](N)[C@@H]2O)C[C@@H]2O[C@](O)(C[C@@H](O)C[C@@H](O)[C@H](O)CC[C@@H](O)C[C@@H](O)CC(=O)O[C@H]1C)C[C@H](O)[C@H]2C(=O)O", "Recorded Value": 0.13}

With those in mind, consider the next molecule.
Sample "CCCCCC1=CC(=O)C2=C(OC(C)(C)[C@@H]3CC[C@](C)(OCC)C=C23)C1=O" — what was its log10 of IC50? -0.15

These entries and their values trace back to ChEMBL document CHEMBL4251600.
